measured property: boiling point (°C)
API: value field is a number in °C; no unit string.

> print(dat)
                      compound  measured.property  measurement.units  observed.result
1              NC(=O)Nc1ccccc1      boiling point                 °C              238
2      Cc1cccc(Oc2cccc(C)c2)c1      boiling point                 °C              284
3           CCC(=O)OCCOC(=O)CC      boiling point                 °C              211
4          O=C1OC(=O)c2ccccc21      boiling point                 °C              295
5  O=C(O)c1ccccc1C(=O)c1ccccc1      boiling point                 °C              261

// field: boiling point; key: `CCC=CC(C)=O` ; value = 140

So, `CC(=O)Nc1ccccc1` ? Its boiling point was 304

Given item `c1ccc(-c2ccccc2)cc1` , the value recorded as its boiling point is 256

Sure, the documented boiling point for CC1CC1C (centres undefined) is 32.6
